Source listed as PubChem BioAssay AID463115.

For each entry below, report its inhibition value.
Molecular target: Furin (Homo sapiens) (UniProt P09958)
Sequence (P09958 108-714 limits assumed): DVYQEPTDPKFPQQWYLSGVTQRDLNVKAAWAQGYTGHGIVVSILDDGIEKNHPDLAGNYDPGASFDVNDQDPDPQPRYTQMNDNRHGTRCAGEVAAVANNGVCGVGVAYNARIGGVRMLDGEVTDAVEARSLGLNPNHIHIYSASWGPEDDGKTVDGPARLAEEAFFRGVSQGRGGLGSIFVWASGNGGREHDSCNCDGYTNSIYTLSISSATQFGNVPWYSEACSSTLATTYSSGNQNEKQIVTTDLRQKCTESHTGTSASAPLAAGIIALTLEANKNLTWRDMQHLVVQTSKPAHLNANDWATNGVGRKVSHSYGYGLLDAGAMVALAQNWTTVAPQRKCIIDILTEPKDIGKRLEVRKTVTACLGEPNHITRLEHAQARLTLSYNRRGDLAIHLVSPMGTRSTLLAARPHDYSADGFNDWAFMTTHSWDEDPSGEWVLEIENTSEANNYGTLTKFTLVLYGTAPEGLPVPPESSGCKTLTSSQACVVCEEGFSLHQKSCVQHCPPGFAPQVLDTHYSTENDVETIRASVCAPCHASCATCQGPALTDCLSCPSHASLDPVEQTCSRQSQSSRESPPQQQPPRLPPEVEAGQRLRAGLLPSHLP
Test: human furin inhibitors, primary screen, biochemical, fluorescence intensity (AID 463115)
Settings: purified furin, fluorogenic substrate cleavage, hits give high values; at 30 µM unless noted
Among all 220,000 compounds or so, about 130 (0.059%) were called active. The sample as a whole holds a higher share of actives than the screen did.

Consider the worked cases shown below.
Compound	Val
CCn1c(-c2cccnc2Cl)nc2cc(C)c(C)cc21	-16.4% (inactive)
CCOc1ncccc1C(=O)OCC(=O)NC1CC1	-17.7% (inactive)
CCc1cc(Br)ccc1NC(=O)C1CCCO1 (stereo unspecified)	-9.19% [at 20 µM] (inactive)

Parameters: items (list). Returns: inhibition for each item.
1. CCOC(=O)Cn1c(=O)oc2cc(S(=O)(=O)NCC3CCCO3)ccc21 (stereo unspecified)
2. C#CCO[C@@H]1C[C@H](n2cnc3c(=O)[nH]c(NC(=O)C(C)C)nc32)O[C@@H]1CO

[reply]
1: -8.46% (inactive); 2: -9.33% (inactive)

[ask] Report inhibition under test system Furin (Homo sapiens) (UniProt P09958) for `COc1ccc(OC)c(S(=O)(=O)NCCC(C)C)c1` .
[reply] -25.7% (inactive)
